Quick reference: pIC50 of the listed items.
- target_under_test: Na^+, K^+-ATPase (Cricetulus griseus, UniProt A0A8C2N4Z0)
- test_protocol: cell-based
Reminder that pIC50 means the negative base-10 logarithm of the concentration expressed in mol/L.

compound	target_under_test	pIC50
C[C@]12CCC(=NOCCCCCN3CCCCC3)C=C1CCC1C2CC[C@]2(C)[C@@H](c3ccc(=O)oc3)CC[C@]12O (stereo partly drawn)	Na^+, K^+-ATPase (Cricetulus griseus, UniProt A0A8C2N4Z0)	4.55
C[C@@H]1O[C@@H](O[C@@H]2C=C3CC[C@@H]4[C@H](CC[C@]5(C)[C@@H](c6ccc(=O)oc6)CC[C@]45O)[C@@]3(C)CC2)[C@H](O)[C@H](O)[C@H]1O [BNC4, proscillaridin, reference compound]	Na^+, K^+-ATPase (Cricetulus griseus, UniProt A0A8C2N4Z0)	4.33

Q) What value of pIC50 on Na^+, K^+-ATPase (Cricetulus griseus, UniProt A0A8C2N4Z0) does C[C@]12CCC(=NOCCCN3CCCCC3)C=C1CCC1C2CC[C@]2(C)[C@@H](c3ccc(=O)oc3)CC[C@]12O (stereo partly drawn) have?
A) 4.24

###

- System: Na^+, K^+-ATPase
- test_protocol: cell-based
- measurement_context: CHO-K1; dose 0.50 uM
assay_endpoint: Normalized Uptake (%)
Please state the figure in %; there is no need to write the unit.

Below are worked cases with known answers.
compound	unit_of_measurement	Normalized Uptake (%)
C[C@]12CCC(=NOCCN3CCC(Cc4ccccc4)CC3)C=C1CCC1C2CC[C@]2(C)[C@@H](c3ccc(=O)oc3)CC[C@]12O (stereo partly shown) [BP249]	%	103.0
C[C@H]1O[C@@H](O[C@H]2[C@@H](O)C[C@H](O[C@H]3[C@@H](O)C[C@H](O[C@H]4CC[C@@]5(C)[C@H](CC[C@@H]6[C@@H]5CC[C@]5(C)[C@@H](C7=CC(=O)OC7)CC[C@]65O)C4)O[C@@H]3C)O[C@@H]2C)C[C@H](O)[C@@H]1O [Digitoxin, reference compound]	%	100.0
C[C@]12CCC(=NOCCCCCN3CCCCC3)C=C1CCC1C2CC[C@]2(C)[C@@H](c3ccc(=O)oc3)CC[C@]12O (stereo partly shown) [BP248]	%	104.5

Now for the compound whose Normalized Uptake (%) we want.
Q) Data request, read-out Normalized Uptake (%), for C[C@@H]1O[C@@H](O[C@@H]2C=C3CC[C@@H]4[C@H](CC[C@]5(C)[C@@H](c6ccc(=O)oc6)CC[C@]45O)[C@@]3(C)CC2)[C@H](O)[C@H](O)[C@H]1O [BNC4, proscillaridin, reference compound]
A) 99.4

###

Known Inhibition (%) of a selection of compounds
- Tested on: Na^+, K^+-ATPase
- test_protocol: cell-based
- measurement_context: CHO-K1; dose 500 uM

compound	target_under_test	assay_endpoint	measured_result
C[C@]12CCC(=NOCCCCN3CCCCC3)C=C1CCC1C2CC[C@]2(C)[C@@H](c3ccc(=O)oc3)CC[C@]12O (some centres unmarked)	Na^+, K^+-ATPase	Inhibition (%)	100.0%

Q) State the recorded Inhibition (%) for this entry: C[C@@H]1O[C@@H](O[C@@H]2C=C3CC[C@@H]4[C@H](CC[C@]5(C)[C@@H](c6ccc(=O)oc6)CC[C@]45O)[C@@]3(C)CC2)[C@H](O)[C@H](O)[C@H]1O [BNC4, proscillaridin, reference compound]
A) 100.0%

Q) Look up Inhibition (%): C[C@]12CCC(=NOCCN3CCC(Cc4ccccc4)CC3)C=C1CCC1C2CC[C@]2(C)[C@@H](c3ccc(=O)oc3)CC[C@]12O (some centres unmarked)
A) 100.0%

Q) GET /values?readout=Inhibition (%)&item= C[C@]12CCC(=NOCCCCCN3CCCCC3)C=C1CCC1C2CC[C@]2(C)[C@@H](c3ccc(=O)oc3)CC[C@]12O (some centres unmarked)
A) 100.0%

Q) Which Inhibition (%) value is on record for C[C@H]1O[C@@H](O[C@H]2[C@@H](O)C[C@H](O[C@H]3[C@@H](O)C[C@H](O[C@H]4CC[C@@]5(C)[C@H](CC[C@@H]6[C@@H]5CC[C@]5(C)[C@@H](C7=CC(=O)OC7)CC[C@]65O)C4)O[C@@H]3C)O[C@@H]2C)C[C@H](O)[C@@H]1O [Digitoxin, reference compound] ?
A) 89.7%

###

- target_under_test: Na^+, K^+-ATPase (Homo sapiens)
- Construct: The HEK-293 cell line endogenously expressing Na^+, K^+-ATPase; endogenous in cells; host or cells: HEK-293
- test_protocol: cell-based
- measurement_context: HEK-293; ranked on potency (IC50 value)
assay_endpoint: Rank order
Enter a number only.

Completed entries (count: 2):
compound	Rank order
C[C@@H]1O[C@@H](O[C@@H]2C=C3CC[C@@H]4[C@H](CC[C@]5(C)[C@@H](c6ccc(=O)oc6)CC[C@]45O)[C@@]3(C)CC2)[C@H](O)[C@H](O)[C@H]1O [BNC4, proscillaridin, reference compound]	1
C[C@]12CCC(=NOCCCCN3CCCCC3)C=C1CCC1C2CC[C@]2(C)[C@@H](c3ccc(=O)oc3)CC[C@]12O (stereo partly drawn) [BP247]	1

Now look at this one.
Q) Endpoint output: Rank order of C[C@]12CCC(=NOCCN3CCC(Cc4ccccc4)CC3)C=C1CCC1C2CC[C@]2(C)[C@@H](c3ccc(=O)oc3)CC[C@]12O (stereo partly drawn) [BP249] . Value?
A) 4

###

- target_under_test: Na^+, K^+-ATPase (Homo sapiens, UniProt P05023)
- Construct: The HEK-293 cell line endogenously expressing Na^+, K^+-ATPase; endogenous in cells; host or cells: HEK-293
- test_protocol: cell-based
- measurement_context: HEK293, HEK-293; dose 1 uM, Log[drug](M) −6.0
assay_endpoint: inhibition at 1 µM (%)
Give the number; % is assumed, so skip it.

> print(dat)
                                   compound  measured.result
1  C[C@]12CCC(=NOCCN3CCOCC3)C=C1CCC1C2CC[C@]2(C)[C@@H](c3ccc(=O)oc3)CC[C@]12O (stereo partly shown) [BP245]               56
2  C[C@]12CCC(=NOCCCCN3CCCCC3)C=C1CCC1C2CC[C@]2(C)[C@@H](c3ccc(=O)oc3)CC[C@]12O (stereo partly shown) [BP247]             79.9
3  C[C@]12CCC(=NOCCCN3CCCCC3)C=C1CCC1C2CC[C@]2(C)[C@@H](c3ccc(=O)oc3)CC[C@]12O (stereo partly shown) [BP246]             79.1

Now for a further compound.
Q) What measured inhibition at 1 µM goes with C[C@]12CCC(=NOCCCCCN3CCCCC3)C=C1CCC1C2CC[C@]2(C)[C@@H](c3ccc(=O)oc3)CC[C@]12O (stereo partly shown) [BP248] ?
A) 10.1

###

// reported inhibition at 10 µM for each item listed
- target_under_test: Na^+, K^+-ATPase (Homo sapiens)
- Construct: The HEK-293 cell line endogenously expressing Na^+, K^+-ATPase; endogenous in cells; host or cells: HEK-293
- test_protocol: cell-based
- measurement_context: HEK293, HEK-293; dose 10 uM, Log[drug](M) −5.0
The reply should contain only the number, in %.

> print(dat)
                                   molecule  measured.result
1  C[C@]12CCC(=NOCCCN3CCCCC3)C=C1CCC1C2CC[C@]2(C)[C@@H](c3ccc(=O)oc3)CC[C@]12O (stereo partly shown) [BP246]             96.1
2  C[C@]12CCC(=NOCCN3CCOCC3)C=C1CCC1C2CC[C@]2(C)[C@@H](c3ccc(=O)oc3)CC[C@]12O (stereo partly shown) [BP245]             94.1
3  C[C@]12CCC(=NOCCCCN3CCCCC3)C=C1CCC1C2CC[C@]2(C)[C@@H](c3ccc(=O)oc3)CC[C@]12O (stereo partly shown) [BP247]             93.5

// moving on: another record for inhibition at 10 µM
Q) For the molecule shown here, C[C@]12CCC(=NOCCCCCN3CCCCC3)C=C1CCC1C2CC[C@]2(C)[C@@H](c3ccc(=O)oc3)CC[C@]12O (stereo partly shown) [BP248] , give the reported inhibition at 10 µM.
A) 74
